Where do these numbers come from? They come from paper PMC12615753.

# targetSystem: hTAS1R1 H71A/rTAS1R3 (UniProt Q7RTX1+Q923K1, H71A)
# Construct: The cDNA coding region of rTAS1R3 was synthesized with optimized-codon usage for human expression
# Sequence (Q7RTX1 21-841 H71A): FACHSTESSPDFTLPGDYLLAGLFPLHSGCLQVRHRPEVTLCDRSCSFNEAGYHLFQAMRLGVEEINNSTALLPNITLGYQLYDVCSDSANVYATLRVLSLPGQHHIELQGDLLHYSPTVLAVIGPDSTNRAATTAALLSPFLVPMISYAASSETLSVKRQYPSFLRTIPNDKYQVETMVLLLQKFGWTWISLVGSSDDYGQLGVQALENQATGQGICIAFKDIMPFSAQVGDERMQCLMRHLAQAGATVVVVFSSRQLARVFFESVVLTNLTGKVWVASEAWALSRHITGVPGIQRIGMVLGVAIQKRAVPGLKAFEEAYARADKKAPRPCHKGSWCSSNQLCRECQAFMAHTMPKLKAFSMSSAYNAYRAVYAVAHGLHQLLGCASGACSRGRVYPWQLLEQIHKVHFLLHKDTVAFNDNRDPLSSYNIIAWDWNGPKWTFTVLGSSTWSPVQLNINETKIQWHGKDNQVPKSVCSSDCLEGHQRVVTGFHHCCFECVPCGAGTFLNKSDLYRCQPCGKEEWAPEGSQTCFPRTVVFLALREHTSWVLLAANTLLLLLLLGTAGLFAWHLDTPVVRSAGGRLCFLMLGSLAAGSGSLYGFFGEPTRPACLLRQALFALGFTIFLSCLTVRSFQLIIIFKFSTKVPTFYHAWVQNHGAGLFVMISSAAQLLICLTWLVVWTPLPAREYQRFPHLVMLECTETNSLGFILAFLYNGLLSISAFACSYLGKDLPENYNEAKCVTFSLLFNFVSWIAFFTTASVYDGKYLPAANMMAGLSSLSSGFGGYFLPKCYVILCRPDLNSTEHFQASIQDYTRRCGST
# Sequence (Q923K1 21-858): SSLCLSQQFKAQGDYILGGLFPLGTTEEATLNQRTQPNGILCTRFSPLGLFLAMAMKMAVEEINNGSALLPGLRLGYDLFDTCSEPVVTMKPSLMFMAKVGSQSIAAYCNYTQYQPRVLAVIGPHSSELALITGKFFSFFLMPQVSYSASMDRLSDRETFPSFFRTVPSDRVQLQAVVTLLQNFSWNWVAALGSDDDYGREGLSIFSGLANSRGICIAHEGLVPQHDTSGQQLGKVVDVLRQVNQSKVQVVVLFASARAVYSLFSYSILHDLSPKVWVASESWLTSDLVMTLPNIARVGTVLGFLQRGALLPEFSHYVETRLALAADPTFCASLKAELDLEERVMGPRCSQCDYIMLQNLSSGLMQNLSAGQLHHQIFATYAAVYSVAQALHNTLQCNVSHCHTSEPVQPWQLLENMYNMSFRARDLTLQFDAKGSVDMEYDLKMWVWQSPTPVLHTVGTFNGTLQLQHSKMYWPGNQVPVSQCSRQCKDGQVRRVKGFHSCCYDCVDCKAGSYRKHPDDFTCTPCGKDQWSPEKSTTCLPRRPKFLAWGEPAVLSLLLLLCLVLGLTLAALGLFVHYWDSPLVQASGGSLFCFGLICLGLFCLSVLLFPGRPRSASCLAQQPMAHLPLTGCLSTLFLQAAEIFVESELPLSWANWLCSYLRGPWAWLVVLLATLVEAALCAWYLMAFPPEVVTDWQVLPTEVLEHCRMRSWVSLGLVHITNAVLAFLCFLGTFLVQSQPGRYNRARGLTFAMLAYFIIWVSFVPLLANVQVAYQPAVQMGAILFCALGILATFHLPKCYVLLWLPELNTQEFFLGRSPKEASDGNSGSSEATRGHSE
# runDescription: Calcium assay, hTAS1R1 mutant co-expressed with rTAS1R3
measurementType: pEC50
Conceptually, pEC50 converts a concentration in mol/L into minus its log10.

[Q] # query: pEC50 of entry "N[C@@H](CCC(=O)N[C@@H](CS)C(=O)NCC(=O)O)C(=O)O"
[A] 2.69

====

# targetSystem: hTAS1R2/rTAS1R3 (UniProt Q8TE23+Q923K1)
# Construct: The cDNA coding region of rTAS1R3 was synthesized with optimized-codon usage for human expression; expressed in transfected cells
# Sequence (Q8TE23 20-839): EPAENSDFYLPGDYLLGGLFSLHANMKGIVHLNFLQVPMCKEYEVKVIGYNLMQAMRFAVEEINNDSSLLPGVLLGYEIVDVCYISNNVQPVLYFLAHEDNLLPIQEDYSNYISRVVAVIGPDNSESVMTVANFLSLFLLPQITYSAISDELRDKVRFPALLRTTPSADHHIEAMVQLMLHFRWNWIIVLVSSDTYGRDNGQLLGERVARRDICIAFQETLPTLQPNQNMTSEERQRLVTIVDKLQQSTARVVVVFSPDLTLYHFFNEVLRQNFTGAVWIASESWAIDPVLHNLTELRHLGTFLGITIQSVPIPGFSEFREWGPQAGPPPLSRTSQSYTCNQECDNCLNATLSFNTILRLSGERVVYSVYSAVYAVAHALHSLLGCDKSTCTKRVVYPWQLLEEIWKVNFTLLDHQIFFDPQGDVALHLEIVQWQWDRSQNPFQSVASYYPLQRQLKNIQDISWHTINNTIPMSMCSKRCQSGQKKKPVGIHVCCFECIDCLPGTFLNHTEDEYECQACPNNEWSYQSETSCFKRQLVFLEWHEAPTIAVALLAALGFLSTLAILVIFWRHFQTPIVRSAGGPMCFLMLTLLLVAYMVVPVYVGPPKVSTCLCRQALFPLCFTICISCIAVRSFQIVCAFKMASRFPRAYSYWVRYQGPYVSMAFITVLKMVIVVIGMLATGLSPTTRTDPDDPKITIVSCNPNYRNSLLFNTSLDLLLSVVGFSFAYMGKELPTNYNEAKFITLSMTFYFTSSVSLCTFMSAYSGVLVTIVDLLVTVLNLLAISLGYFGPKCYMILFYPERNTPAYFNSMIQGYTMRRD
# Sequence (Q923K1 21-858): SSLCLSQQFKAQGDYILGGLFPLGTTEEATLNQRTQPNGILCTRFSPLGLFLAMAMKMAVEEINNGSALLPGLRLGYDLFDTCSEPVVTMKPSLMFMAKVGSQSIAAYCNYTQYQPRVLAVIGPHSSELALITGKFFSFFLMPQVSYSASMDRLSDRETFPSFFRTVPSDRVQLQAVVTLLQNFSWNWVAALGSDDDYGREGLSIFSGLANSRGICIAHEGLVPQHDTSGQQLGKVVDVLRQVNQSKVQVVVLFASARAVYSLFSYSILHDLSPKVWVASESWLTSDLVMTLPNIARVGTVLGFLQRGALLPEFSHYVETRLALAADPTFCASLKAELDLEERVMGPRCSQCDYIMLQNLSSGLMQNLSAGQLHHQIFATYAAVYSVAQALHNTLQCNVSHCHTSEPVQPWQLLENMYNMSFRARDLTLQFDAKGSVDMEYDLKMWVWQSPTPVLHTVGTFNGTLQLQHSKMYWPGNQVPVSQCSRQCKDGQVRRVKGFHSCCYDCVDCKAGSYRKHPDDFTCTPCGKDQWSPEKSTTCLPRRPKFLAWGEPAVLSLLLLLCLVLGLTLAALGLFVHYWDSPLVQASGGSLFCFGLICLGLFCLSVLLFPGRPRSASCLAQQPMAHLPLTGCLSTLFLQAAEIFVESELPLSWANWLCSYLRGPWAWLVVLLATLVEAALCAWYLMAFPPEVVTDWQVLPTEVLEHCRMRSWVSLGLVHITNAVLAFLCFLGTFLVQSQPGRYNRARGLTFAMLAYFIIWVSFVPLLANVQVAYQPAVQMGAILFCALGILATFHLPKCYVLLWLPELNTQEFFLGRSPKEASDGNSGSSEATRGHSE
# runDescription: Calcium assay in transfected HEK293T/17 cells, sweet taste receptor
# Assay type: cell-based, human, rat
# protocolConditions: agonist alone; Fig. 2
measurementType: pEC50
Just so you know, pEC50 here is -log10 of the concentration in molar units; reply with that number alone.

[Q] Give the measured pEC50 of OC[C@H]1O[C@H](O[C@]2(CCl)O[C@H](CCl)[C@@H](O)[C@@H]2O)[C@H](O)[C@@H](O)[C@H]1Cl [sucralose, reference compound] .
[A] 3.60

[Q] Name the reported pEC50 value associated with the compound N[C@@H](CCC(=O)N[C@@H](CS)C(=O)NCC(=O)O)C(=O)O [GSH, γ-L-glutamyl-L-cysteinyl-glycine]
[A] 2.39

====

# targetSystem: hTAS1R1 S172A/rTAS1R3 (UniProt Q7RTX1+Q923K1, S172A)
# Construct: UniProtKB number Q7RTX1–1); The cDNA coding region of rTAS1R3 was synthesized with optimized-codon usage for human expression
# runDescription: Calcium assay, hTAS1R1 mutant co-expressed with rTAS1R3
pEC50: −log10 of the molar value.
measurementType: pEC50

[Q] Bench note: what pEC50 did "N[C@@H](CCC(=O)N[C@@H](CS)C(=O)NCC(=O)O)C(=O)O" show?
[A] < 1.52
